Where do these numbers come from? They come from patent US10889555B2.

System: various cancer cell lines as described in Table 21
method summary: Cell proliferation inhibitory effect on human cancer-derived cancer cell lines (method of Test Example 2)
Type: cell-based
setup conditions: RPMI7932, Melanoma, 4000 cell/well, read-out: cell proliferation inhibitory effect, RPMI7932
pIC50: −log10 of the molar value.

{"columns": ["compound", "pIC50"],
 "data": [
  ["Cc1c(Cl)ccc(F)c1[C@@H](C)[C@H](NS(=O)(=O)c1ccc(Cl)c2c1OCCC2(C)O)c1n[nH]c(=O)o1 (single isomer, unassigned) [Example 209A]", 6.14],
  ["[2H]C([2H])([2H])C1(O)CCOc2c(S(=O)(=O)N[C@H](c3n[nH]c(=O)o3)[C@H](C)c3c(F)ccc(Cl)c3C)ccc(Cl)c21 (single isomer, unassigned) [Example 228A]", 6.19],
  ["Cc1ccc(F)c([C@@H](C)[C@H](NS(=O)(=O)c2ccc(Br)cc2C(N)=O)c2n[nH]c(=O)o2)c1C", 5.76]
]}

* * *

# pIC50 annotations
Tested on: various cancer cell lines as described in Table 21
method summary: Cell proliferation inhibitory effect on human cancer-derived cancer cell lines (method of Test Example 2)
Assay type: cell-based
setup conditions: DU-145, DU145, Prostate Cancer, 5000 cell/well, read-out: cell proliferation inhibitory effect, DU145
pIC50: −log10 of the molar value.
experimental readout: pIC50

{"columns": ["compound", "test target", "experimental readout", "recorded value"],
 "data": [
  ["[2H]C([2H])([2H])C1(O)CCOc2c(S(=O)(=O)N[C@H](c3n[nH]c(=O)o3)[C@H](C)c3c(F)ccc(C)c3C)ccc(Cl)c21 (single isomer, unassigned) [Example 200A]", "various cancer cell lines as described in Table 21", "pIC50", 6.77],
  ["Cc1ccc(F)c([C@@H](C)[C@H](NS(=O)(=O)c2ccc(Cl)c3c2OCCC3O)c2n[nH]c(=O)o2)c1C (single isomer, unassigned) [Example 235A]", "various cancer cell lines as described in Table 21", "pIC50", 6.28],
  ["Cc1c(Br)ccc(F)c1[C@@H](C)[C@H](NS(=O)(=O)c1ccc(Cl)c2c1OCCC2(C)O)c1n[nH]c(=O)o1 (single isomer, unassigned) [Example 222A]", "various cancer cell lines as described in Table 21", "pIC50", 6.59],
  ["Cc1ccc(F)c([C@@H](C)[C@H](NS(=O)(=O)c2ccc(Br)cc2C(N)=O)c2n[nH]c(=O)o2)c1C", "various cancer cell lines as described in Table 21", "pIC50", 6.14],
  ["Cc1c(Cl)ccc(F)c1[C@@H](C)[C@H](NS(=O)(=O)c1ccc(Cl)cc1C(N)=O)c1n[nH]c(=O)o1", "various cancer cell lines as described in Table 21", "pIC50", 5.65],
  ["[2H]C([2H])([2H])C1(O)CCOc2c(S(=O)(=O)N[C@H](c3n[nH]c(=O)o3)[C@H](C)c3c(F)ccc(Cl)c3C)ccc(Cl)c21 (single isomer, unassigned) [Example 228A]", "various cancer cell lines as described in Table 21", "pIC50", 6.47],
  ["CCc1ccc(F)c([C@@H](C)[C@H](NS(=O)(=O)c2ccc(Cl)cc2C(N)=O)c2n[nH]c(=O)o2)c1C", "various cancer cell lines as described in Table 21", "pIC50", 5.74],
  ["Cc1c(Cl)ccc(F)c1[C@@H](C)[C@H](NS(=O)(=O)c1ccc(Cl)c2c1OCCC2(C)O)c1n[nH]c(=O)o1 (single isomer, unassigned) [Example 209A]", "various cancer cell lines as described in Table 21", "pIC50", 6.51],
  ["Cc1ccc(F)c([C@@H](C)[C@H](NS(=O)(=O)c2ccc(Cl)cc2C(N)=O)c2n[nH]c(=O)o2)c1C", "various cancer cell lines as described in Table 21", "pIC50", 5.98]
]}
